All values here come from PubChem BioAssay (NCI).

- Protocol Details: NCI Yeast Anticancer Drug Screen. Data for the sgs1 mgt1 strain (AID 161);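 note: 0% = growth of cultures given vehicle only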
- Stated Conditions: S. cerevisiae sgs1 mgt1 strain, at 50.0 µM, stronger effect = higher value
This is part of a sample that, as a whole, favours compounds with a hit. Of some 79,000 tested, about 15% had one in any assay.
Measure Name: growth inhibition (%)
Give the value in % but do not write % after it.

q: Return the recorded growth inhibition value; entry: Cc1cc(=O)c2cc(N=Cc3ccc(N(C)C)cc3)ccc2o1
a: -16.8

q: Return the recorded growth inhibition value; entry: OCC(O)COc1ccccc1F (centres undefined)
a: -11.2

q: Return the recorded growth inhibition value; entry: CC(=O)NNC(=S)/N=C/C(C(=O)Nc1ccc([N+](=O)[O-])cc1)=C(\C)O
a: -21.9

q: Return the recorded growth inhibition value; entry: CCCCCCC1NC(=S)N(c2ccccc2)C1=O (centres undefined)
a: 48.5

q: Return the recorded growth inhibition value; entry: CN(C)NC(=O)/C=C\C(=O)O
a: -9.8

q: Return the recorded growth inhibition value; entry: S=C1SCN(c2ccc(Br)cc2)CN1c1ccc2[nH]c(=S)sc2c1
a: 26.1

q: Return the recorded growth inhibition value; entry: COc1ccccc1N=NC1=C2Nc3ccccc3N=C1N(c1ccccc1OC)C(=S)N2c1ccccc1C
a: -16.4

q: Return the recorded growth inhibition value; entry: O/N=C1/CCCCc2ccccc21
a: -21.2

q: Return the recorded growth inhibition value; entry: CCOC(=O)/C=C/C1(CCOC(C)=O)CCCCC1
a: -2.9

q: Return the recorded growth inhibition value; entry: C/C(CC(=O)Nc1ccc(Cl)c(Cl)c1)=N/NC(=O)C[N+](C)(C)C
a: -6.3

q: Return the recorded growth inhibition value; entry: CCOC(=O)c1cnc(SC)nc1Nc1cccc(Cl)c1Cl
a: 35.9

q: Return the recorded growth inhibition value; entry: OC1COC(O)(CN2CCOCC2)C(O)C1O (centres undefined)
a: 10.6

q: Return the recorded growth inhibition value; entry: COc1ccc(NC(=O)COc2ccc(Cl)cc2Cl)cc1
a: 31.4

q: Return the recorded growth inhibition value; entry: Nc1nc2nc(Br)[nH]c2c(=O)[nH]1
a: -29.3

q: Return the recorded growth inhibition value; entry: CCCCC1(CCS)C(=O)NC(=Nc2ccccc2)NC1=O (centres undefined)
a: 11.8

q: Return the recorded growth inhibition value; entry: C=C(C)CCCC(C)C(O)C=O (centres undefined)
a: 1.55

q: Return the recorded growth inhibition value; entry: CCc1cc(CC)n2cnnc2n1
a: -9

q: Return the recorded growth inhibition value; entry: Cc1ccc(-n2[nH]nc(C#N)c2=O)cc1
a: -23.9

q: Return the recorded growth inhibition value; entry: O=C1C(NS(=O)(=O)c2ccccc2)=C(N(Cc2ccccc2)Cc2ccccc2)C(=O)c2ccccc21
a: 26.1

q: Return the recorded growth inhibition value; entry: O=C(c1cccc(C(=O)N2CCCC2)n1)N1CCCC1
a: -1.7

q: Return the recorded growth inhibition value; entry: OC1C2CCC3C2CC(C(O)(c2ccccc2)c2ccccc2)C13 (centres undefined)
a: -8.75

q: Return the recorded growth inhibition value; entry: CC(=O)O[C@]12CCCCC1C1(O)C(O)CCCC[C@H]12 (some centres undefined)
a: -65.5

q: Return the recorded growth inhibition value; entry: COc1ccc(/C=N/NC(=O)c2cnc3[nH]c(=O)n(C)c(=O)c3c2)cc1
a: 30.6

q: Return the recorded growth inhibition value; entry: CCOC(=O)C(=O)O
a: -4.85

q: Return the recorded growth inhibition value; entry: NC1=NC(c2ccc(Cl)cc2)N(c2ccc(S(N)(=O)=O)cc2)C(N)=N1 (centres undefined)
a: -24.5

q: Return the recorded growth inhibition value; entry: CCCOc1cc2c(cc1C(C)(C)c1ccccc1)OCO2
a: -12.7

q: Return the recorded growth inhibition value; entry: C=C(C)[C@@H]1CC=C(CO)CC1
a: 0.45

q: Return the recorded growth inhibition value; entry: COc1ccc2c3c(ccc2c1)C1C(=O)OC(=O)C1CC3 (centres undefined)
a: 6.5

q: Return the recorded growth inhibition value; entry: CC(C)(CCC(=O)O)C(=O)O
a: -30.5

q: Return the recorded growth inhibition value; entry: CCCCOC(=O)c1cc(/C=C\c2ccccc2)on1
a: 3.1

q: Return the recorded growth inhibition value; entry: CCOC(=O)NC(OCCN(C)C)(C(F)(F)F)C(F)(F)F
a: -53.5

q: Return the recorded growth inhibition value; entry: O=C1OC(=O)C2C1C1CCC2C1(c1ccccc1)c1ccccc1 (centres undefined)
a: 31.4

q: Return the recorded growth inhibition value; entry: COCCCNC(=O)C1=C(C)NC(C)=C(C(=O)NCCCOC)C1
a: -10.7

q: Return the recorded growth inhibition value; entry: CC1(C)C=CC=C(C(=O)O)C=C1
a: -34.2

q: Return the recorded growth inhibition value; entry: Cc1ccc(Sc2ccc3ccccc3c2)nc1
a: -17.6

q: Return the recorded growth inhibition value; entry: O=C(OCCCl)C1CC2C=CC1C2 (centres undefined)
a: 3.85

q: Return the recorded growth inhibition value; entry: COc1ccc(OC)c(N2C(=O)C(=O)C(C(C)=O)C2=O)c1 (centres undefined)
a: 7.15

q: Return the recorded growth inhibition value; entry: COC(=O)c1sc(C(=O)OC)c2c1CSC2
a: -18.4

q: Return the recorded growth inhibition value; entry: Cc1cc(=O)[nH]c(NN2C(Cl)C(=O)C2c2ccc([N+](=O)[O-])cc2)n1 (centres undefined)
a: 12.7
